tested.on: T1, PUF4 RNA-binding domain (Saccharomyces cerevisiae, UniProt P25339 537-888)
T1 sequence: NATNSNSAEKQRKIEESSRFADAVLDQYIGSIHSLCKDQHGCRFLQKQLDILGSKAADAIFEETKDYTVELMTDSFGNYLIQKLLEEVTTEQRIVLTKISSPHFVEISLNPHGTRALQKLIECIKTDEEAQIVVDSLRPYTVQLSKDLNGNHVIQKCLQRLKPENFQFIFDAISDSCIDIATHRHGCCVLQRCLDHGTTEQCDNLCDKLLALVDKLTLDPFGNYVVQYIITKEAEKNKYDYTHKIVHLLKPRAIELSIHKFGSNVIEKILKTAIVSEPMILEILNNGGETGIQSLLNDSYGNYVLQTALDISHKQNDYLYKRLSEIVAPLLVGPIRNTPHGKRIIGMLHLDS
method.notes: Mg; RNA-MaP; 20 mM Na-HEPES pH 7.4, 30 mM KOAc, 0.75 mM MgCl2, 0.1% Tween-20, 5% glycerol, 0.1 mg/mL BSA, 2 mM DTT; 25 C; 0.0125-409.6 nM protein
condition.info: tags: N-His6-TEV cleaved; C-SNAP kept, Cy3B-labelled; label: tethered on chip by stalled RNA polymerase
In plain terms, low Kd, meaning strictly below 70 nM, gives y, and everything else gives n.

Recorded results for 5 binders are shown here.
- binder: "UCUCUUUGUAUAUCCUUAUCUCUU (ssRNA) [Ie_S1_P4E.1_K4.1_C4.1_H4.1_A4.1_[+7CCT]_F4.1_T4.1]"
  cat: "y"
- binder: "Ic_S4_P3E.1_K3.1_C3.1_H3.1_A3.1_[T5C]_[A6G]_F3.1_[T7C]_[A8G]_T3.1 (ssRNA) RNA: UUUGACAACUGAUCGUUCUUUCUUGUACGCGUUCUUUCUCGAUCAGUUGUCUUU"
  cat: "n"
- binder: "Ie_S4_P5E.1_K5.1_C5.1_H5.1_A5.1_F5.1_[+8CT]_T5.1 (ssRNA) RNA: UUUGACAACUGAUCGUUCUUUCUUGUAUUAUCUUAUUCUUUCUCGAUCAGUUGUCUUU"
  cat: "y"
- binder: "UCUCUUUGUAUACGCUCUCUU (ssRNA) [Ic_S1_P4E.1_K4.1_C4.1_H4.1_A4.1_[T7C]_F4.1_[T8G]_[A9C]_T4.1]"
  cat: "n"
- binder: "UCUCUUUGUACGAUUUCUCUU (ssRNA) [Ic_S1_P4E.1_K4.1_C4.1_H4.1_A4.1_[T5C]_[A6G]_[T7A]_F4.1_[A9T]_T4.1]"
  cat: "y"

# input Kd strictly < 70 nM for this binder? UCUCUUUUACACUUAUUACCUCUCUU (ssRNA) [Id_ii_S1_P5E.4_K5.3_C5.2_[C-2T]_H5.3_A5.1_F5.1_T5.2_[T11C]_[A12C]]
# output n

# input hey, is Kd for Ic_S2_P5E.1_K5.1_C5.1_H5.1_A5.1_[A7G]_F5.1_[T8C]_[T9C]_T5.1 (ssRNA) RNA: UUUGAUUAAUAUGAUAUCGUUCUUUCUUGUAUUGCCAUUCUUUCUCGAUAUCAUAUUAAUCUUU lower than 70 nM or not?
# output n

# input Check if Kd falls below 70 nM for Ic_S4_P3E.1_K3.1_C3.1_H3.1_A3.1_[T5C]_F3.1_[T7C]_[A8T]_T3.1 (ssRNA) RNA: UUUGACAACUGAUCGUUCUUUCUUGUACACUUUCUUUCUCGAUCAGUUGUCUUU .
# output y

# input Strictly below 70 nM in Kd? Id_ii_S4_P4E.4_K4.3_C4.2_[T-1A]_H4.3_A4.1_F4.1_T4.2 (ssRNA) RNA: UUUGACAACUGAUCGUUCUUUCUCAACACUAUUAGUUUCUUUCUCGAUCAGUUGUCUUU
# output n

# input I'd appreciate it if you could check whether Id_ii_S2_P4E.4_K4.3_C4.2_[T-1G]_H4.3_A4.1_F4.1_T4.2_[G10A] (ssRNA) RNA: UUUGAUUAAUAUGAUAUCGUUCUUUCUCGACACUAUUAAUUUCUUUCUCGAUAUCAUAUUAAUCUUU has Kd smaller than 70 nM.
# output n

# input Quick check: Kd of Ie_S4_P3E.2_K3.1_C3.2_[+-1CTT]_H3.1_A3.1_F3.1_T3.2 (ssRNA) RNA: UUUGACAACUGAUCGUUCUUUCUCUCUUUGUAUAUAUAUUCUUUCUCGAUCAGUUGUCUUU under 70 nM?
# output y

# input # check: Kd < 70 nM for UCUCUUUCUAUAUAUAUAUCUCUU (ssRNA) [Id_ii_S1_P3E.3_K3.2_C3.2_[C-2T]_[T-1C]_H3.2_A3.1_F3.1_T3.2]
# output n

# input Does the reported Kd of Ie_S4_P5E.1_K5.1_C5.1_H5.1_[+4TTCC]_A5.1_F5.1_T5.1 (ssRNA) RNA: UUUGACAACUGAUCGUUCUUUCUUGUAUUCCUUAUUAUUCUUUCUCGAUCAGUUGUCUUU stay below 70 nM?
# output y

# input Would you kindly verify if Kd of Ic_S4_P4E.1_K4.1_C4.1_H4.1_A4.1_[T5G]_[A6C]_[T7C]_F4.1_[T8C]_T4.1 (ssRNA) RNA: UUUGACAACUGAUCGUUCUUUCUUGUAGCCCAUUCUUUCUCGAUCAGUUGUCUUU is strictly less than 70 nM?
# output n

# input Please check: Kd for UCUCUUUGUAUUUGAUCUCUU (ssRNA) [Ib_S1_P4E.1_K4.1_C4.1_H4.1_A4.1_[A6T]_F4.1_[T8G]_T4.1] , strictly under 70 nM or not?
# output n

# input Consider the binder Ib_S2_P3E.1_K3.1_C3.1_H3.1_[G2A]_A3.1_[T5C]_F3.1_T3.1 (ssRNA) RNA: UUUGAUUAAUAUGAUAUCGUUCUUUCUUAUACAUAUUCUUUCUCGAUAUCAUAUUAAUCUUU . Is its Kd strictly less than 70 nM?
# output n

# input Please state whether Kd is below 70 nM for Ie_S2_P3E.2_K3.1_C3.2_H3.1_[+1CCCTT]_A3.1_F3.1_T3.2 (ssRNA) RNA: UUUGAUUAAUAUGAUAUCGUUCUUUCUCUUCCCUUGUAUAUAUAUUCUUUCUCGAUAUCAUAUUAAUCUUU
# output y

# input Given Ic_S4_P5E.1_K5.1_C5.1_H5.1_A5.1_[T5A]_[T6A]_[A7T]_F5.1_[A10T]_T5.1 (ssRNA) RNA: UUUGACAACUGAUCGUUCUUUCUUGUAAAUUUUUUCUUUCUCGAUCAGUUGUCUUU , is recorded Kd strictly lower than 70 nM?
# output y

# input Below 70 nM on Kd? Entry Id_ii_S2_P5E.4_K5.3_C5.2_[C-2T]_H5.3_A5.1_F5.1_T5.2_[T11C]_[A12C] (ssRNA) RNA: UUUGAUUAAUAUGAUAUCGUUCUUUCUUUACACUUAUUACCUUCUUUCUCGAUAUCAUAUUAAUCUUU
# output n

# input Lab log: compare recorded Kd with 70 nM; is it strictly lower for Ic_S4_P3E.1_K3.1_C3.1_H3.1_A3.1_[T5C]_[A6T]_F3.1_[T7C]_[A8C]_T3.1 (ssRNA) RNA: UUUGACAACUGAUCGUUCUUUCUUGUACUCCUUCUUUCUCGAUCAGUUGUCUUU ?
# output n

# input Here's an entry: Id_ii_S4_P4E.3_K4.2_C4.2_[C-2A]_[T-1C]_H4.2_A4.1_F4.1_T4.2_[G10T]_[T11C] (ssRNA) RNA: UUUGACAACUGAUCGUUCUUUCUACUAUAUAUUAUCUUCUUUCUCGAUCAGUUGUCUUU . Is its Kd below 70 nM?
# output y

# input Is Kd of UCUCUUCAUAUAUUAUUAAUUCUCUU (ssRNA) [Id_ii_S1_P5E.3_K5.2_C5.2_[T-1A]_H5.2_A5.1_F5.1_T5.2_[T11A]_[A12T]] strictly below 70 nM?
# output n
